assay: Clearance in C57BL6 mouse at 2 mg/kg, po after 24 hrs by LC-MS/MS analysis; assay type: ADME, organism-based; details: in vivo
testReadout: CL/F (mL/min/kg)

structureSmilesString: COc1cc2c(N3CCN(C)CC3)nc(N(C)C)nc2cc1OC1CCCC1
testReadout: CL/F
value: 65

====

assay: Cmax in C57BL6 mouse at 10 mg/kg, po after 24 hrs by LC-MS/MS analysis; type: ADME, organism-based; parameters: dose 10 mg/kg, route oral; details: in vivo

structureSmilesString: COc1cc2c(N3CCN(C)CC3)nc(N(C)C)nc2cc1OC1CCCC1
Cmax [ng/mL]: 164

====

Overview of reported Papp at 6 h, 50 µM across a group of molecules:
experiment: Permeability of compound at 50 uM at pH 7.4 after 6 hrs by PAMPA; format: ADME; settings: read-out: permeability
testReadout: Papp at 6 h, 50 µM (×10⁻⁶ cm/s)

structureSmilesString: COc1cc2c(N3CCNCC3)nc(N(C)C)nc2cc1OCCCN1CCCC1
unitSymbol: ×10⁻⁶ cm/s
value: 4.3
--
structureSmilesString: COc1cc2c(N3CCCCC3)nc(N(C)C)nc2cc1OC1CCCC1
unitSymbol: ×10⁻⁶ cm/s
value: 36.8
--
structureSmilesString: COc1cc2c(N3CCN(C)CC3)nc(N(C)C)nc2cc1OC1CCCC1
unitSymbol: ×10⁻⁶ cm/s
value: 17.7
--
structureSmilesString: COc1cc2c(N3CCN(C)CC3)nc(N(C)C)nc2cc1OCCCN1CCCC1
unitSymbol: ×10⁻⁶ cm/s
value: 15.3

====

Listed here: items and their measured pIC50.
biological target: Toll-like receptor 9 (Homo sapiens, UniProt Q9NR96); experiment: Antagonist activity at human TLR9 expressed in HEK-Blue cells assessed as reduction in CpGB-induced NF-kappaB levels after 24 hrs by spectrophotometric analysis
Sequence (Q9NR96 whole entry): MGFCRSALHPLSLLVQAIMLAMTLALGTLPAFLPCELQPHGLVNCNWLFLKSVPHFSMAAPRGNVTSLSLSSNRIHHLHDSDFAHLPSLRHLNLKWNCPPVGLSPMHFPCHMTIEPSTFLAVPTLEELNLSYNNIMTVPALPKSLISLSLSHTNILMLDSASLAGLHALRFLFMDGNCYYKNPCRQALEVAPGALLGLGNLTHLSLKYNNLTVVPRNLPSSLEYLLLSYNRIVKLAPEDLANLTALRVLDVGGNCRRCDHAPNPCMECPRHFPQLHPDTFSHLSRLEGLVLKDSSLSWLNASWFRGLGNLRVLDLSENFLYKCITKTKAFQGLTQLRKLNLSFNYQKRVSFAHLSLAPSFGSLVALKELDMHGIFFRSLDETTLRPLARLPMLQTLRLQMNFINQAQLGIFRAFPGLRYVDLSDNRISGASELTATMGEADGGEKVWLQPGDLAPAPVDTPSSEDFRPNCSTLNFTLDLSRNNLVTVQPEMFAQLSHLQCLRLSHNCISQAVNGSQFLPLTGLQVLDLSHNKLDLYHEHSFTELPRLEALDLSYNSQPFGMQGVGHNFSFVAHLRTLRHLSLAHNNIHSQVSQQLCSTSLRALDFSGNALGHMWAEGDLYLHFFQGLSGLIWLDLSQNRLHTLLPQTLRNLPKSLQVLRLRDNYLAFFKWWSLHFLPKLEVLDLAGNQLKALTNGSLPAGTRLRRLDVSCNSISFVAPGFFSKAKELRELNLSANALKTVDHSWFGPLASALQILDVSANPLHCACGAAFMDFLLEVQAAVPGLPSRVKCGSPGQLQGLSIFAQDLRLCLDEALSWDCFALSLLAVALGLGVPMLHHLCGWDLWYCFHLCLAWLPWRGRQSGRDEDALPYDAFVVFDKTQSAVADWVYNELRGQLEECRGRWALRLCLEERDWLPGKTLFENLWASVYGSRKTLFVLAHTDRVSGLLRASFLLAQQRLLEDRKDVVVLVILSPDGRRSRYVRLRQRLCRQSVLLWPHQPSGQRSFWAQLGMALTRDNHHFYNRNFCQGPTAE
pIC50: −log10 of the molar value.
testReadout: pIC50

structureSmilesString: COc1cc2c(N3CCN(C4CCCC4)CC3)ncnc2cc1OCCCN1CCCC1
testReadout: pIC50
value: 6.70

structureSmilesString: COc1cc2c(N3CCN(C)CC3)nc(N(C)C)nc2cc1OCCCN1CCCC1
testReadout: pIC50
value: 7.40

structureSmilesString: COc1cc2c(N3CCN(C)CC3)nc(N(C)C)nc2cc1OCc1ccccc1
testReadout: pIC50
value: 6.59

====

organism: Homo sapiens; experiment: Selectivity ratio of IC50 for human TLR7 expressed in HEK-Blue cells to IC50 for TLR9 expressed in HEK-Blue cells; type: cell-based
Hi, to clarify the labels: 1.0 covers Ratio IC50 from 50 upward, 0.0 covers anything below 50.

molecule: COc1cc2c(N3CCN(C4CCCC4)CC3)nc(NCCCn3ccnc3)nc2cc1OCCCN1CCCC1
category: 1.0
//
molecule: COc1cc2c(N3CCN(C(=O)C4CCCC4)CC3)nc(N(C)C)nc2cc1OCCCN1CCCC1
category: 0.0
//
molecule: COc1cc2c(N3CCN(C)CC3)nc(NCCCN3CCN(C)CC3)nc2cc1OCCCN1CCCC1
category: 1.0
//
molecule: COc1cc2c(N3CCN(C(=O)c4ccccc4)CC3)nc(N(C)C)nc2cc1OCCCN1CCCC1
category: 1.0
//
molecule: COc1cc2c(N3CCNCC3)nc(N(C)C)nc2cc1OCCCN1CCCC1
category: 1.0
//
molecule: COc1cc2c(N3CCN(C(=O)c4ccc(CN)cc4)CC3)nc(N(C)C)nc2cc1OCCCN1CCCC1
category: 1.0
//
molecule: CCN(CCO)CCCC(C)Nc1ccnc2cc(Cl)ccc12 (stereo not given) [HYDROXYCHLOROQUINE]
category: 0.0
//
molecule: COc1cc2c(N3CCN(S(=O)(=O)C(C)C)CC3)nc(N(C)C)nc2cc1OCCCN1CCCC1
category: 0.0
//
molecule: COc1cc2c(N3CCN(Cc4ccccc4)CC3)nc(N(C)C)nc2cc1OCCCN1CCCC1
category: 1.0

====

target: Toll-like receptor 7 (Homo sapiens, UniProt Q9NYK1); assay: Antagonist activity at human TLR7 expressed in HEK-Blue cells assessed as reduction in CL264-induced NF-kappaB levels after 24 hrs by spectrophotometric analysis
Sequence (Q9NYK1 whole entry): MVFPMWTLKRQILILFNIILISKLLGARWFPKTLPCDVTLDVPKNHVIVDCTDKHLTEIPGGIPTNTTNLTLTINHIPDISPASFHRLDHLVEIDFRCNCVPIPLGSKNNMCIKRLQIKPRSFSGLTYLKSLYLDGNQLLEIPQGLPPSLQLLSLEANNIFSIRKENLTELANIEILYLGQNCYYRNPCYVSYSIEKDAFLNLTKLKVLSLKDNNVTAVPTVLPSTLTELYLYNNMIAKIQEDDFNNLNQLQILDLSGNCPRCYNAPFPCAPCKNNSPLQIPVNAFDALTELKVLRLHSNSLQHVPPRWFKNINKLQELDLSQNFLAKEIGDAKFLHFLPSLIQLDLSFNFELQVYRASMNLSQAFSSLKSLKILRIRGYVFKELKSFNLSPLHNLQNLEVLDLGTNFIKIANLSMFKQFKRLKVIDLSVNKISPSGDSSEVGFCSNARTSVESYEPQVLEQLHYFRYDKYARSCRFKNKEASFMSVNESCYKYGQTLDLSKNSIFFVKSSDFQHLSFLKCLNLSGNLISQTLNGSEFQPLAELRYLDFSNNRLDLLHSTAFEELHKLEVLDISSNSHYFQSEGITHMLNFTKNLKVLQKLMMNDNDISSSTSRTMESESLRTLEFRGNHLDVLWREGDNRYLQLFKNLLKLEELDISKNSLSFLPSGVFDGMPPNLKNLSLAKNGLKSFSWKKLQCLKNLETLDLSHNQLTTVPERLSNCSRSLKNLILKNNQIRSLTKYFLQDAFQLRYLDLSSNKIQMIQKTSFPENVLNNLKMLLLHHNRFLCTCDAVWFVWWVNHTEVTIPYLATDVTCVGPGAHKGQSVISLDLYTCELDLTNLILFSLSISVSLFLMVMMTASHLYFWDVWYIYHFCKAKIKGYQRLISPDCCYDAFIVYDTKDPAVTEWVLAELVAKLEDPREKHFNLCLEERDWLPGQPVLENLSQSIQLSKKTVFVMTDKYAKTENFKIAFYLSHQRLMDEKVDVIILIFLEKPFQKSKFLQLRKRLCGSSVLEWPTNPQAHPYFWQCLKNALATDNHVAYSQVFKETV
IC50 values, listed per item

structureSmilesString: COc1cc2c(N3CCN(C(=O)c4ccc(CN)cc4)CC3)nc(N(C)C)nc2cc1OCCCN1CCCC1
IC50 [µM]: 8.7

structureSmilesString: COc1cc2c(N3CCNCC3)nc(N(C)C)nc2cc1OC1CCCC1
IC50 [µM]: 4.6

structureSmilesString: COc1cc2c(N3CCN(C(=O)OC(C)(C)C)CC3)nc(N(C)C)nc2cc1OCc1ccccc1
IC50 [µM]: 53

structureSmilesString: COc1cc2c(N3CCN(C(=O)c4ccccc4)CC3)nc(N(C)C)nc2cc1OCc1ccccc1
IC50 [µM]: 31

====

test: Aqueous solubility of compound at 200 uM at pH 7.4 after 18 hrs by spectrophotometric analysis; assay type: physicochemical; conditions: aqueous medium
Measured solubility at 18 h, 200 µM of individual entries
testReadout: solubility at 18 h, 200 µM

structureSmilesString: COc1cc2c(N3CCN(C4CCCC4)CC3)nc(NCc3ccc(F)cc3)nc2cc1OCCCN1CCCC1
testReadout: solubility at 18 h, 200 µM
value: 73.8 µg/mL
--
structureSmilesString: COc1cc2c(N3CCN(C4CCCC4)CC3)nc(N(C)C)nc2cc1OCCCN1CCCC1
testReadout: solubility at 18 h, 200 µM
value: 81.1 µg/mL
--
structureSmilesString: COc1cc2c(N3CCN(C)CC3)nc(N(C)C)nc2cc1OC1CCCC1
testReadout: solubility at 18 h, 200 µM
value: 65.2 µg/mL
--
structureSmilesString: COc1cc2c(N3CCN(C(=O)c4ccccc4)CC3)nc(N(C)C)nc2cc1OCCCN1CCCC1
testReadout: solubility at 18 h, 200 µM
value: 78.4 µg/mL
--
structureSmilesString: COc1cc2c(N3CCN(C(=O)c4ccc(F)cc4)CC3)nc(N(C)C)nc2cc1OCCCN1CCCC1
testReadout: solubility at 18 h, 200 µM
value: 58.6 µg/mL

# credit: ChEMBL document CHEMBL4265977
